target: Arginase-2, mitochondrial (Homo sapiens); assay: in vitro enzyme assay to detect the production of urea directly proportional to the activity of Arginase II; assay type: functional; set-up: scale not given: in the data most compounds retested in dose-response had high values; details: 33.3 µM
Each entry below carries its reported Percent Effect.

Below: 3 compounds and their reported Percent Effect.
>>> reported_result("Cc1nc(N(C)C)nc2c1COCC21CCN(CC2CC2)C1 (centres undefined)")
"1.25%"
>>> reported_result("c1ccc(OC[C@H]2CCC[C@]23CN(Cc2nccs2)CCO3)nc1")
"-15.2%"
>>> reported_result("Cc1cccc(CN2CC[C@@H]3[C@@H]2CCN3C(=O)c2ccno2)n1")
"-1.67%"

Please turn your attention to the following entry.
## Task If you can, please state the reported Percent Effect value of c1ccc(CO[C@H]2CO[C@@]3(CCN(Cc4ccoc4)C3)C2)nc1 .
## Result -7.57%

###

biological target: Aspartate--tRNA(Asp/Asn) ligase (Mycobacterium tuberculosis (strain ATCC 25618 / H37Rv)) (UniProt P9WFW3); test: Assay for Asp RNA synthetase-1 from Mycobacterium tuberculosis; type: functional; design: scale not given: direction of the effect not stated beside the values; settings: 30 µM; note: in the data most compounds retested in dose-response had high values
Sequence (P9WFW3 whole entry): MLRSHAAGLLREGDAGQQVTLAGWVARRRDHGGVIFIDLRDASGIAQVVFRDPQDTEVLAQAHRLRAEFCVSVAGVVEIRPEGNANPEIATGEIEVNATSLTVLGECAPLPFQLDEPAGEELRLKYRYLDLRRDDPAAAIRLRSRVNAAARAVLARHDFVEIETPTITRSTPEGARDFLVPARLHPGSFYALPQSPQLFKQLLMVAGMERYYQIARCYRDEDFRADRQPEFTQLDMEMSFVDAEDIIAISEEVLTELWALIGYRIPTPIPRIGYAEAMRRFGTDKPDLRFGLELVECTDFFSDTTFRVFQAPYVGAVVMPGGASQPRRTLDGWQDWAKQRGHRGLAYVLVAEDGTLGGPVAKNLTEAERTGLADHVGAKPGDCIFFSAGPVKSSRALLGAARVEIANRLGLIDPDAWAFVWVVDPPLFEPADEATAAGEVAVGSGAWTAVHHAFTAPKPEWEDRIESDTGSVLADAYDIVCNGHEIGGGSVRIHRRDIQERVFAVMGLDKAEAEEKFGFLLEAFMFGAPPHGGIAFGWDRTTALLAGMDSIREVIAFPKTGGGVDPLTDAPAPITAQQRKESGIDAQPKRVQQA
ENDPOINT LABEL: Percent Effect (%)
Entry rule: numbers only, all in %.

Below: 4 compounds and their reported Percent Effect.
>>> reported_result("COCCN1CCC(Cc2cncc(-c3ccc(C(=O)O)cc3)n2)C1 (stereo not given)")
4.51
>>> reported_result("O=C(C1CC(=O)N(c2ccccc2Br)C1)N1CCC2(CC1)OCCO2 (stereo not given)")
2.47
>>> reported_result("COc1ccc(F)c(CN2CCC(c3cc(O)nc(C)n3)C2)c1 (stereo not given)")
-6.3
>>> reported_result("CC(O)CN1CCN(C(=O)c2cnn(-c3ccccc3F)c2)CC1 (stereo not given)")
-2.52

## Task If you can, please state the reported Percent Effect value of O=C(CN1CCOC(Cn2cccn2)C1)Nc1nccs1 (stereo not given) .
## Result -4.87

###

target: Sialic acid-binding Ig-like lectin 9 (Homo sapiens) (UniProt Q9Y336); test: Hs-Siglec9 ALPHAscreen SOP 20170721; design: scale not given: direction of the effect not stated beside the values; details: 10 µM
Sequence (Q9Y336 whole entry): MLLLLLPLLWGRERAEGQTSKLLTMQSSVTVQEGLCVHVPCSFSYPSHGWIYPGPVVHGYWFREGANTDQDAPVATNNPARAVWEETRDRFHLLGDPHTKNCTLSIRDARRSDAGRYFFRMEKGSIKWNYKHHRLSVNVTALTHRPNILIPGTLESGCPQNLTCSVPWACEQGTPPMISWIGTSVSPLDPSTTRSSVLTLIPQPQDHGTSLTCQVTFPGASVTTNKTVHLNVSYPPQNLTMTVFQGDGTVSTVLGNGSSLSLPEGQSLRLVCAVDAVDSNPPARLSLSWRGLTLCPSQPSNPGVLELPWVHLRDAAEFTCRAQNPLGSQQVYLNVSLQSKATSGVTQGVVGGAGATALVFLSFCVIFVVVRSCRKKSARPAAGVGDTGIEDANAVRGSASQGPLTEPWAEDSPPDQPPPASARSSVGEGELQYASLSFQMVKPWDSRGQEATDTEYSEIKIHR
ENDPOINT LABEL: Percent Effect

Below: 5 compounds and their reported Percent Effect.
>>> reported_result("CN1CCCC(c2n[nH]c3ncccc23)C1 (stereo not given)")
"2.48%"
>>> reported_result("COc1cc(CNCC(O)c2ccc(C)cc2)cc2c1OCCO2 (stereo not given)")
"14.6%"
>>> reported_result("NCC1[C@H]2CN(CCc3ccccc3)C[C@@H]12 (stereo not given in full)")
"-1.73%"
>>> reported_result("O=C(N[C@H]1CN[C@H]2CCCO[C@H]21)c1cccnc1")
"7.91%"
>>> reported_result("CCOCC(O)CN1CCN(C(=O)Cc2ccc3c(c2)CCO3)CC1 (stereo not given)")
"5%"

## Task If you can, please state the reported Percent Effect value of COc1cccc(CNC(C)Cn2cccn2)c1OC (stereo not given) .
## Result 3.25%

## Task If you can, please state the reported Percent Effect value of CCc1cnc(N2CC3(CCN(Cc4ccsc4)C3)C2)nc1 .
## Result -1.39%

## Task If you can, please state the reported Percent Effect value of COc1cccc(CCNCc2c(C)nn(C)c2N(C)C)c1 .
## Result 0.941%

## Task If you can, please state the reported Percent Effect value of CCc1nc(CNC(C)Cn2cccn2)cs1 (stereo not given) .
## Result 12.1%

## Task If you can, please state the reported Percent Effect value of CNCCc1nc2cc(F)ccc2[nH]1 .
## Result -3.69%

## Task If you can, please state the reported Percent Effect value of O=C(COc1cccc(F)c1)N1C[C@@H](O)[C@H](N2CCCC2)C1 .
## Result 2.64%
